- TEST_TARGET: IL16_4, Q14005
- Sequence (Q14005 1229-1329): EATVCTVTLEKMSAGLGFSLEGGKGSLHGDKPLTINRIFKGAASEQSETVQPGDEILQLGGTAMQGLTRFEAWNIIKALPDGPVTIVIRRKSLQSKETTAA
- ASSAY_EXPLANATION: holdup assay
- Set-up: key: below the threshold = too weak to quantify, mostly under pKd 3.1 to 4
- TEST_CONDITIONS: plain residues with an end cap or a label only (N-terminal biotin on a linker: ado-ado)
MEASUREMENT_KIND: pKd

KEKASTETEC [TRPM1, Q7Z4N2]; below the threshold
PAALPESTHM [SLC9A3, P48764]; below the threshold
NISARRFTLC [FAM167B, Q9BTA0]; below the threshold
PKSNSSKEYV [CLDN7, O95471]; below the threshold
DFKHTKSFII [JAM2, P57087]; below the threshold

stdin: Consider the binder SAGADSETHC [SLCO1B1, Q9Y6L6] and give its measured pKd.
stdout: below the threshold

stdin: Same thing, different binder: PGKKPEDSRV [SLCO2B1, O94956]
stdout: below the threshold

stdin: Moving on to the next binder: QKNKDREYYV [NRXN3, Q9HDB5]
stdout: below the threshold

stdin: Ok, now RGKNRRQSIF [CDK18, Q07002]
stdout: below the threshold

stdin: Now try VKQYADVEGF [HNRNPK, P61978] .
stdout: 3.51
